- assayed.target: BuChE (from equine serum) (Equus caballus, UniProt P81908)
- Construct: BuChE (from equine serum)
- Sequence (P81908 whole entry): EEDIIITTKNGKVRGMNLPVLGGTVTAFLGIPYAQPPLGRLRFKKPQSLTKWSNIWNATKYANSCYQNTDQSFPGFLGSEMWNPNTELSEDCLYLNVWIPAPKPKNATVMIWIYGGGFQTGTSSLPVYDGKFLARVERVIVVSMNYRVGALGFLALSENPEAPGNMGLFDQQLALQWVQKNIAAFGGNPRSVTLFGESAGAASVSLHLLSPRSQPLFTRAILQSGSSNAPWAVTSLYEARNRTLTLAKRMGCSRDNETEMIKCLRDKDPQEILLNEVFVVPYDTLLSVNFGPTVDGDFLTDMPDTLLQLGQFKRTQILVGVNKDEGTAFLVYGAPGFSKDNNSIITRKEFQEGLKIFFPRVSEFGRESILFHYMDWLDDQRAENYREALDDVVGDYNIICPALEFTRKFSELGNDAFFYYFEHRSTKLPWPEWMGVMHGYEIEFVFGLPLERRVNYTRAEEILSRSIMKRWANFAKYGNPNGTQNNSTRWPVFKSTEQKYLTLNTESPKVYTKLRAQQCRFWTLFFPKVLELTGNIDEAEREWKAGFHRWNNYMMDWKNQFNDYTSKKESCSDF
- assay.method.text: biochemical
- condition.details: mean ± SD of three experiments, read-out: BuChE Inhibition (IC50)
endpoint.name: IC50

>>> result("O=C1c2ccccc2-n2c1nc1ccc(NS(=O)(=O)c3cccc(F)c3)cc1c2=O")
"> 50 µM"
>>> result("O=C1c2cc(NS(=O)(=O)c3ccc(OC(F)(F)F)cc3)ccc2-n2c1nc1ccccc1c2=O")
"10.2 µM"
>>> result("O=C1c2ccccc2-n2c1nc1ccc(NS(=O)(=O)c3ccc(Br)cc3)cc1c2=O")
"> 50 µM"
>>> result("COc1ccc(S(=O)(=O)Nc2ccc3nc4n(c(=O)c3c2)-c2ccccc2C4=O)cc1")
"10.2 µM"
>>> result("O=C1c2cc(NS(=O)(=O)c3ccccc3)ccc2-n2c1nc1ccccc1c2=O")
"9.98 µM"
>>> result("O=C1c2cc(NS(=O)(=O)c3cccc(F)c3)ccc2-n2c1nc1ccccc1c2=O")
"21.6 µM"
>>> result("Cc1ccc(S(=O)(=O)Nc2ccc3nc4n(c(=O)c3c2)-c2ccccc2C4=O)cc1")
"> 50 µM"
>>> result("CC(=O)Nc1ccc(S(=O)(=O)Nc2ccc3c(c2)C(=O)c2nc4ccccc4c(=O)n2-3)cc1")
"> 50 µM"
>>> result("O=C1c2cc(NS(=O)(=O)c3ccc(F)cc3)ccc2-n2c1nc1ccccc1c2=O")
"11.9 µM"
>>> result("COc1ccc(S(=O)(=O)Nc2ccc3c(c2)C(=O)c2nc4ccccc4c(=O)n2-3)c(OC)c1")
"> 50 µM"
>>> result("COc1ccc(S(=O)(=O)Nc2ccc3nc4n(c(=O)c3c2)-c2ccccc2C4=O)cc1OC")
"> 50 µM"
>>> result("COc1ccc(S(=O)(=O)Nc2ccc3c(c2)C(=O)c2nc4ccccc4c(=O)n2-3)cc1OC")
"> 50 µM"
>>> result("O=C1c2ccccc2-n2c1nc1ccc(NS(=O)(=O)c3ccc(OC(F)(F)F)cc3)cc1c2=O")
"> 50 µM"
>>> result("O=C1c2ccccc2-n2c1nc1ccc(NS(=O)(=O)c3ccccc3)cc1c2=O")
"> 50 µM"
>>> result("O=C1c2ccccc2-n2c1nc1ccc(NS(=O)(=O)c3ccccc3C(F)(F)F)cc1c2=O")
"> 50 µM"
>>> result("CC(C)c1cc(C(C)C)c(S(=O)(=O)Nc2ccc3nc4n(c(=O)c3c2)-c2ccccc2C4=O)c(C(C)C)c1")
"> 50 µM"
>>> result("COc1ccc(S(=O)(=O)Nc2ccc3nc4n(c(=O)c3c2)-c2ccccc2C4=O)c(OC)c1")
"> 50 µM"
>>> result("O=C1c2cc(NS(=O)(=O)c3ccc(Br)cc3)ccc2-n2c1nc1ccccc1c2=O")
"> 50 µM"

* * *

- System: PC12 cells
- assay.method.text: Cytotoxicity in PC12 cells (MTT)
- Assay type: cell-based
- condition.details: compound 30 μM
Below, each of the compounds is paired with its reported Cell Viability (% of Control) value.
endpoint.name: Cell Viability (% of Control)

>>> result("O=C1c2ccccc2-n2c1nc1ccc(NS(=O)(=O)c3ccc(Br)cc3)cc1c2=O [8e]")
"99.8 ± 0.7 % of Control"
>>> result("O=C1c2ccccc2-n2c1nc1ccc(NS(=O)(=O)c3c(Cl)cccc3Cl)cc1c2=O [8p]")
"99.6 ± 2.7 % of Control"
>>> result("Cc1ccc(S(=O)(=O)Nc2ccc3nc4n(c(=O)c3c2)-c2ccccc2C4=O)cc1 [8b]")
"101.2 ± 3.1 % of Control"
>>> result("O=C1c2cc(NS(=O)(=O)c3ccccc3)ccc2-n2c1nc1ccccc1c2=O [4a]")
"99.5 ± 1.7 % of Control"
>>> result("O=C1c2cc(NS(=O)(=O)c3ccccc3C(F)(F)F)ccc2-n2c1nc1ccccc1c2=O [4o]")
"99.6 ± 2.7 % of Control"
>>> result("O=C1c2ccccc2-n2c1nc1ccc(NS(=O)(=O)c3ccccc3C(F)(F)F)cc1c2=O [8o]")
"99.7 ± 2.4 % of Control"
>>> result("COc1ccc(S(=O)(=O)Nc2ccc3nc4n(c(=O)c3c2)-c2ccccc2C4=O)c(OC)c1 [8l]")
"99.4 ± 1.1 % of Control"
>>> result("O=C1c2ccccc2-n2c1nc1ccc(NS(=O)(=O)c3ccccc3OC(F)(F)F)cc1c2=O [8n]")
"99.2 ± 1.9 % of Control"
>>> result("O=C1c2cc(NS(=O)(=O)c3c(Cl)cccc3Cl)ccc2-n2c1nc1ccccc1c2=O [4p]")
"99.6 ± 2.7 % of Control"
>>> result("O=C1c2cc(NS(=O)(=O)c3cccc(F)c3)ccc2-n2c1nc1ccccc1c2=O [4g]")
"100 ± 1.3 % of Control"
>>> result("Cc1ccc(S(=O)(=O)Nc2ccc3c(c2)C(=O)c2nc4ccccc4c(=O)n2-3)cc1 [4b]")
"99.7 ± 0.9 % of Control"
>>> result("O=C1c2cc(NS(=O)(=O)c3ccc(OC(F)(F)F)cc3)ccc2-n2c1nc1ccccc1c2=O [4m]")
"99.6 ± 0.8 % of Control"
>>> result("O=C1c2ccccc2-n2c1nc1ccc(NS(=O)(=O)c3ccc(OC(F)(F)F)cc3)cc1c2=O [8m]")
"99.5 ± 3.1 % of Control"
>>> result("O=C1c2ccccc2-n2c1nc1ccc(NS(=O)(=O)c3ccccc3)cc1c2=O [8a]")
"100.1 ± 1.5 % of Control"
>>> result("O=C1c2ccccc2-n2c1nc1ccc(NS(=O)(=O)c3ccccc3F)cc1c2=O [8h]")
"99.4 ± 1.4 % of Control"
>>> result("O=C1c2cc(NS(=O)(=O)c3ccc(Br)cc3)ccc2-n2c1nc1ccccc1c2=O [4e]")
"99.6 ± 2.1 % of Control"
>>> result("O=C1c2cc(NS(=O)(=O)c3ccccc3OC(F)(F)F)ccc2-n2c1nc1ccccc1c2=O [4n]")
"99.9 ± 0.7 % of Control"
>>> result("CC(C)c1cc(C(C)C)c(S(=O)(=O)Nc2ccc3nc4n(c(=O)c3c2)-c2ccccc2C4=O)c(C(C)C)c1 [8d]")
"99.8 ± 0.7 % of Control"

* * *

- Test system: P-gp (MDR1)
- assay.method.text: in vitro
- Type: in vitro ADME
- condition.details: dog, MDCK-MDR1; MDCKII-MDR1; apical-to-basal; 2 h
endpoint.name: Papp A→B at 2 h, 75 μM (×10⁻⁶ cm/s)

>>> measured_number("O=C1c2cc(NS(=O)(=O)c3ccccc3F)ccc2-n2c1nc1ccccc1c2=O")
18.1

* * *

- assayed.target: AChE (from electric eel) (Electrophorus electricus, UniProt O42275)
- Construct: AChE (from electric eel); purchased Sigma Chemical Company (St. Louis, MO, USA)
- Sequence (O42275 24-633): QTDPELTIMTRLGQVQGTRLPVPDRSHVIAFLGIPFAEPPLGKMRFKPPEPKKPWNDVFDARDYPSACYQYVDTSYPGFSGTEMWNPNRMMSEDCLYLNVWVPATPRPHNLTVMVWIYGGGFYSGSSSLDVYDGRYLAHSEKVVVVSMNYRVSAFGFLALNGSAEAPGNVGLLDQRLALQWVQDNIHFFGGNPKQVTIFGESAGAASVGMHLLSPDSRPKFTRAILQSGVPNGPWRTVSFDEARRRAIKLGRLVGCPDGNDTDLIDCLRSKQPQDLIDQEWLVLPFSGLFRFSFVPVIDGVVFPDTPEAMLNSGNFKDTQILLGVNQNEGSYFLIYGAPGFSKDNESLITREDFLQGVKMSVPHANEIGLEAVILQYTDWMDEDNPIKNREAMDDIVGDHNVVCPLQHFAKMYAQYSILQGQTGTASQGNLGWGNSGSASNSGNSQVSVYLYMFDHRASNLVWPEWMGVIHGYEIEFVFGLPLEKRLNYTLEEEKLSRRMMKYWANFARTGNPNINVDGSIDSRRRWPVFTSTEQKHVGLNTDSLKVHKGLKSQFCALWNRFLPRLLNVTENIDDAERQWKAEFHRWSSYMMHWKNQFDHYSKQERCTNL
- assay.method.text: biochemical
- condition.details: AChE from electric eel; mean ± SD of three experiments; read-out: AChE Inhibition (IC50)
pIC50: −log10 of the molar value.
The entries below are paired with their reported pIC50.
endpoint.name: pIC50

>>> measured_number("Cc1ccc(S(=O)(=O)Nc2ccc3nc4n(c(=O)c3c2)-c2ccccc2C4=O)cc1")
5.34
>>> measured_number("O=C1c2cc(NS(=O)(=O)c3ccc(F)cc3)ccc2-n2c1nc1ccccc1c2=O")
6.25
>>> measured_number("O=C1c2cc(NS(=O)(=O)c3ccc(OC(F)(F)F)cc3)ccc2-n2c1nc1ccccc1c2=O")
5.11
>>> measured_number("CC(=O)Nc1ccc(S(=O)(=O)Nc2ccc3c(c2)C(=O)c2nc4ccccc4c(=O)n2-3)cc1")
5.06

* * *

- Test system: PC12 cells
- assay.method.text: Cytotoxicity in PC12 cells (MTT)
- Assay type: cell-based
- condition.details: compound 50 μM
Here, each record is paired with measured Cell Viability (% of Control) data.
endpoint.name: Cell Viability (% of Control)

>>> result("COc1ccc(S(=O)(=O)Nc2ccc3nc4n(c(=O)c3c2)-c2ccccc2C4=O)cc1")
"98.9 ± 2.1 % of Control"
>>> result("O=C1c2ccccc2-n2c1nc1ccc(NS(=O)(=O)c3ccc(OC(F)(F)F)cc3)cc1c2=O")
"98.2 ± 1.7 % of Control"
>>> result("O=C1c2cc(NS(=O)(=O)c3ccc(Br)cc3)ccc2-n2c1nc1ccccc1c2=O")
"99.5 ± 2.3 % of Control"
>>> result("O=C1c2ccccc2-n2c1nc1ccc(NS(=O)(=O)c3cccc(F)c3)cc1c2=O")
"99.5 ± 2.7 % of Control"
>>> result("O=C1c2ccccc2-n2c1nc1ccc(NS(=O)(=O)c3ccccc3C(F)(F)F)cc1c2=O")
"99.4 ± 1.1 % of Control"
>>> result("O=C1c2cc(NS(=O)(=O)c3ccccc3OC(F)(F)F)ccc2-n2c1nc1ccccc1c2=O")
"99.7 ± 1.8 % of Control"
>>> result("Cc1ccc(S(=O)(=O)Nc2ccc3c(c2)C(=O)c2nc4ccccc4c(=O)n2-3)cc1")
"99.5 ± 1.5 % of Control"
>>> result("O=C1c2cc(NS(=O)(=O)c3c(Cl)cccc3Cl)ccc2-n2c1nc1ccccc1c2=O")
"99.3 ± 2.9 % of Control"
>>> result("COc1ccc(S(=O)(=O)Nc2ccc3c(c2)C(=O)c2nc4ccccc4c(=O)n2-3)cc1")
"99.1 ± 1.2 % of Control"
